Answer each item with its documented pEC50.
- system-tested: PD-1/PD-L1 interaction (Homo sapiens)
- Construct: PD-1 Effector Jurkat T cells
- Sequence (Q9NZQ7 19-290): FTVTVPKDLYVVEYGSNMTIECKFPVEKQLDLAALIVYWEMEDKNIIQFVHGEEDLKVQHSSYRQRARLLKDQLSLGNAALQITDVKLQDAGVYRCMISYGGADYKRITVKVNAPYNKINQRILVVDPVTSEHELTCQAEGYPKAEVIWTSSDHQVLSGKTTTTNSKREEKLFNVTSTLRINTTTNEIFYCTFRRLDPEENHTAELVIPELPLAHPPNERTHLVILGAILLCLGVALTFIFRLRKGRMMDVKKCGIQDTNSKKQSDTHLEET
- test-method-notes: PD-1/PD-L1 Blockade Bioassay (Promega J1252; NFAT cellular assay)
- test-context: PD-1 Effector Jurkat cells co-cultured with PD-L1 aAPC/CHO-K1 cells for 6 h; NFAT-RE luminescence; three replications
Structures can show the parent of a compound that is named as a salt.
Worth noting: pEC50 values are minus log10 of concentrations stated in mol/L.

Looking for the measured pEC50 of COc1cc(C(=O)Nc2cccc(-c3cccc(NC(=O)c4cc(OC)c(CN[C@@H](C)CO)cn4)c3C)c2C)ncc1CNCCCO [Compound R1_C453] , can you help?
6.84

Consider the molecule shown here: COc1cc(C(=O)Nc2cccc(-c3cccc(NC(=O)c4ccc(CN(C)CCO)cn4)c3C)c2C)ncc1CN[C@@H]1CCC[C@H]1O [Compound R1_C451_1, trihydrochloride] What is its recorded pEC50?
6.63

Any idea what pEC50 was measured for COc1cc(C(=O)Nc2cccc(-c3cccc(NC(=O)c4ccc(CN(C)CCO)cn4)c3C)c2C)ncc1CN(C)CCO [Compound R1_C450] ?
6.69

Please give the measured pEC50 for this molecule: COc1cc(C(=O)Nc2cccc(-c3cccc(NC(=O)c4cc(OC)c(CN[C@@H]5CCC[C@H]5O)cn4)c3C)c2C)ncc1CNC(CO)CO [Compound R1_C445]
6.82
